The compounds listed here are annotated with their TGI.
Tested on: OVCAR-8 ovarian
assay_method_text: NCI tumour cell line growth inhibition, 48 h

Sample answers from the record:
{"compound": "O=C(N/N=C(/COc1ccccc1Cl)N=Cc1cccnc1)c1ccncc1", "system_under_test": "OVCAR-8 ovarian", "TGI": "> 100 µM"}
{"compound": "Cc1ccc(/C=N/Nc2ccccn2)s1", "system_under_test": "OVCAR-8 ovarian", "TGI": "> 100 µM"}
{"compound": "CC(=O)OC1COC(N2CCc3ccccc32)C(OC(C)=O)C1OC(C)=O (configuration not stated)", "system_under_test": "OVCAR-8 ovarian", "TGI": "> 100 µM"}

Form: compound = CC(=O)C(C)CCOC1(C)OCCC1C (configuration not stated) ; TGI = > 100 µM

###

System: UO-31 renal
assay_method_text: NCI tumour cell line growth inhibition, 48 h
endpoint_label: TGI

Known results for compounds:
{"compound": "CN(C)CC1CCC(=C2CCCC2)C1=O (stereo unspecified)", "TGI": "32.3 µM"}
{"compound": "C=CCCC1CCCNC1=S (stereo unspecified)", "TGI": "> 100 µM"}
{"compound": "N#C/C(=C\\c1cc(F)cc(F)c1)c1ccccn1", "TGI": "> 100 µM"}
{"compound": "O=C(NCCCCNC(=O)OCc1ccc2c(Cl)cc(Cl)c(O)c2n1)OCc1ccc2c(Cl)cc(Cl)c(O)c2n1", "TGI": "> 100 µM"}
{"compound": "COc1ccc(/C=C/c2nnc(/C=C/c3ccc(OC)c(OC)c3)o2)cc1OC", "TGI": "> 100 µM"}

Would you kindly look at the next entry?
Looking up N#CCN1c2ccccc2CCC1Cl (stereo unspecified) , I see its TGI listed as > 10 µM

###

Tested on: LOX IMVI melanoma
assay_method_text: NCI tumour cell line growth inhibition, 48 h; in the data active = GI50 below about 0.43 µM; inactive = the rest
Returns: one label drawn from active, inactive

{"compound": "c1ccc(-c2c(-c3ccccc3)[n+](Cc3ccc4ccccc4c3)c(-c3cccc4ccccc34)n2Cc2ccc3ccccc3c2)cc1", "system_under_test": "LOX IMVI melanoma", "label_value": "active"}

Let's switch to this compound now.
Each compound tested received a call. Report the one for NCCOc1ncccc1/C=C1\c2ccccc2-c2ccc(F)cc21 .
inactive

###

Tested on: MALME-3M melanoma
assay_method_text: NCI tumour cell line growth inhibition, 48 h
# Lookup of reported TGI keyed by entry

Some solved cases for reference:
{"compound": "CCCCCCCCc1ccc(OCCOCC[N+](C)(C)CC)cc1 (tested in a mixture with another compound)", "TGI": "6.44 µM"}
{"compound": "COC(=O)C(CC(=O)c1ccccc1)c1ccccc1NC(C)=O (stereo not drawn)", "TGI": "> 100 µM"}

We next turn to a different compound, shown below.
Entry COc1ccc(OC)c(NC(=O)C2=C(C)NC(C)=C(C(=O)Nc3cc(OC)ccc3OC)C2c2ccco2)c1 , MALME-3M melanoma data, TGI value: > 100 µM

###

Tested on: SW-620 colon
assay_method_text: NCI tumour cell line growth inhibition, 48 h; in the data active = GI50 below about 0.43 µM; inactive = the rest
Hello, when you answer, please use one of the following outcomes: active, inactive

These recorded examples may help you get a feel for the data.
{"molecule": "Cn1ncc2c(Sc3ccc(Cl)cc3)ncnc21", "label_value": "inactive"}
{"molecule": "COc1cc(-c2nc3ccccc3s2)ccc1OCCCCCOc1cc2c(cc1OC)C(=O)N1CCC[C@H]1C=N2", "label_value": "active"}
{"molecule": "[O-]c1ccccc1/C=N/c1nccs1.[O-]c1ccccc1/C=N/c1nccs1.[O]=[U+2]=[O]", "label_value": "inactive"}

Hey, what did the test say about Cn1cc(-c2nc3c(F)cc4[nH]ncc4c3c3c2CCCC3)c(C(F)(F)F)n1 ?
inactive

Any idea what this test logged for c1ccc(-c2c(-c3ccccc3)[n+](Cc3ccc4ccccc4c3)c(-c3cccc4ccccc34)n2Cc2ccc3ccccc3c2)cc1 ?
active

Please let me know the test result on file for NS(=O)(=O)N(c1cc(C(F)(F)F)cc(C(F)(F)F)c1)C1CCN(Cc2ccc(F)cc2)CC1 .
inactive
